- measurement notes: GT localization in healthy versus 4T1 tumor bearing lung tissue
- Format: in vivo, BALB/c mice
- cond: female, BALB/c, mouse, lung, intravenous, 1 hour after control (CrEL), Healthy mice, 50/5 mg/kg GT IV; geometric mean ± SD; read-out: Lung
readout kind: concentration at 1 h (ng/g)
Field format: number, assumed ng/g, no unit text.

>>> observed_value("CC(=O)O[C@H]1C(=O)[C@@]2(C)[C@H]([C@H](OC(=O)c3ccccc3)[C@]3(O)C[C@H](OC(=O)[C@H](O)[C@@H](NC(=O)c4ccccc4)c4ccccc4)C(C)=C1C3(C)C)[C@]1(OC(C)=O)CO[C@@H]1C[C@@H]2O")
1000

Data request, read-out concentration at 1 h, for Nc1ccn([C@@H]2O[C@H](CO)[C@@H](O)C2(F)F)c(=O)n1
900

###

- measurement notes: GT localization in healthy versus 4T1 tumor bearing lung tissue
- Format: in vivo, BALB/c mice
- cond: female, BALB/c, mouse, lung, intravenous, 24 hours after DcNP, 4T1 tumor bearing mice; read-out: Lung
readout kind: concentration at 24 h (ng/g)
Field format: number, assumed ng/g, no unit text.

Data request, read-out concentration at 24 h, for CC(=O)O[C@H]1C(=O)[C@@]2(C)[C@H]([C@H](OC(=O)c3ccccc3)[C@]3(O)C[C@H](OC(=O)[C@H](O)[C@@H](NC(=O)c4ccccc4)c4ccccc4)C(C)=C1C3(C)C)[C@]1(OC(C)=O)CO[C@@H]1C[C@@H]2O [Paclitaxel]
400

Data request, read-out concentration at 24 h, for Nc1ccn([C@@H]2O[C@H](CO)[C@@H](O)C2(F)F)c(=O)n1 [Gemcitabine]
3500

###

- measurement notes: Pharmacokinetic study of GT in DcNPs compared to CrEL (Example 2), plasma G, T and dFdU
- Assay type: in vivo, BALB/c mice
- cond: female, BALB/c, mouse, plasma, iv, Control (CrEL suspension); 50/5 mg/kg G/T IV, mice
readout kind: AUC(0-inf) (ng·h/mL)
Field format: number, assumed ng·h/mL, no unit text.

Data request, read-out AUC(0-inf), for CC(=O)O[C@H]1C(=O)[C@@]2(C)[C@H]([C@H](OC(=O)c3ccccc3)[C@]3(O)C[C@H](OC(=O)[C@H](O)[C@@H](NC(=O)c4ccccc4)c4ccccc4)C(C)=C1C3(C)C)[C@]1(OC(C)=O)CO[C@@H]1C[C@@H]2O
2610

###

- measurement notes: GT localization in healthy versus 4T1 tumor bearing lung tissue
- Type: in vivo, BALB/c mice
- cond: female, BALB/c, mouse, lung/plasma, intravenous, 1 hour after DcNP, Healthy mice; read-out: Lung/Plasma Ratio
Listing of recorded Kp at 1 h by entry.
The answer should be a number; do not append a unit.

>>> observed_value("Nc1ccn([C@@H]2O[C@H](CO)[C@@H](O)C2(F)F)c(=O)n1")
0.1

Below: the item to evaluate.
Data request, read-out Kp at 1 h, for CC(=O)O[C@H]1C(=O)[C@@]2(C)[C@H]([C@H](OC(=O)c3ccccc3)[C@]3(O)C[C@H](OC(=O)[C@H](O)[C@@H](NC(=O)c4ccccc4)c4ccccc4)C(C)=C1C3(C)C)[C@]1(OC(C)=O)CO[C@@H]1C[C@@H]2O
0.4

###

- measurement notes: Pharmacokinetic study of GT in DcNPs compared to CrEL (Example 2), plasma G, T and dFdU
- Format: in vivo, BALB/c mice
- cond: female, BALB/c, mouse, plasma, iv, 50 mg/kg, Control (CrEL suspension); 50/5 mg/kg G/T IV, mice; read-out: T1/2,app (converted)
readout kind: half-life (h)
Field format: number, assumed h, no unit text.

Data request, read-out half-life, for Nc1ccn([C@@H]2O[C@H](CO)[C@@H](O)C2(F)F)c(=O)n1
1.6

###

- measurement notes: Pharmacokinetic study of GT in DcNPs compared to CrEL (Example 2), plasma G, T and dFdU
- Format: in vivo, BALB/c mice
- cond: female, BALB/c, mouse, plasma, iv, Control (CrEL suspension); 50/5 mg/kg G/T IV, mice; read-out: C0 (concentration at time 0, back extrapolated)
readout kind: C0 (ng/mL)
Field format: number, assumed ng/mL, no unit text.

Data request, read-out C0, for CC(=O)O[C@H]1C(=O)[C@@]2(C)[C@H]([C@H](OC(=O)c3ccccc3)[C@]3(O)C[C@H](OC(=O)[C@H](O)[C@@H](NC(=O)c4ccccc4)c4ccccc4)C(C)=C1C3(C)C)[C@]1(OC(C)=O)CO[C@@H]1C[C@@H]2O [Paclitaxel]
17700

###

- measurement notes: Pharmacokinetics of venetoclax-zanubrutinib DcNP's versus free drug in mice
- Assay type: in vivo, BALB/C mice
- cond: female, BALB/C, mouse, plasma, sc, subcutaneous injection of DcNP's, plasma over one week
- Source text: To quantify drug concentrations (both DcNP-bound and free drug), an extraction protocol was established to quantify venetoclax and zanubrutinib. In short, drug was solubilized by diluting the sample into ethyl acetate, liberating it from either the DcNP lipid matrix, mouse plasma, or both. […] Drug concentrations were quantified by comparing sample data with standard curves prepared from untreated mouse plasma spiked with known amounts of drug. […]
Listing of recorded AUC by entry.
Field format: number, assumed µg·h/mL, no unit text.

>>> observed_value("CC1(C)CCC(CN2CCN(c3ccc(C(=O)NS(=O)(=O)c4ccc(NCC5CCOCC5)c([N+](=O)[O-])c4)c(Oc4cnc5[nH]ccc5c4)c3)CC2)=C(c2ccc(Cl)cc2)C1")
232

Below: the item to evaluate.
Data request, read-out AUC, for C=CC(=O)N1CCC([C@@H]2CCNc3c(C(N)=O)c(-c4ccc(Oc5ccccc5)cc4)nn32)CC1
49

###

- measurement notes: Pharmacokinetic study of GT in DcNPs compared to CrEL (Example 2), plasma G, T and dFdU
- Type: in vivo, BALB/c mice
- cond: female, BALB/c, mouse, plasma, iv, 50 mg/kg, Control (CrEL suspension); 50/5 mg/kg G/T IV, mice; read-out: C0 (concentration at time 0, back extrapolated)
- Excerpt: Drugs extracted from biological matrices such as plasma or tissue homogenates were quantified by a Shimadzu HPLC system coupled to a 3200 QTRAP mass spectrometer (Applied Biosystems, Grand Island, N.Y.). The HPLC system consisted of two Shimadzu LC-20A pumps, a DGU-20A5 degasser, and a Shimadzu SIL-20AC HT autosampler. The mass spectrometer was equipped with an electrospray ionization (ESI) TurbolonSpray source. […] Analytes were monitored using multiple-reaction monitoring (MRM) for positive ions. […]
readout kind: C0 (µg/mL)
Field format: number, assumed µg/mL, no unit text.

Data request, read-out C0, for Nc1ccn([C@@H]2O[C@H](CO)[C@@H](O)C2(F)F)c(=O)n1
165

###

- measurement notes: GT localization in healthy versus 4T1 tumor bearing lung tissue
- Type: in vivo, BALB/c mice
- cond: female, BALB/c, mouse, plasma, intravenous, 1 hour after DcNP, 4T1 tumor bearing mice; read-out: Plasma
Listing of recorded concentration at 1 h by entry.
Field format: number, assumed ng/mL, no unit text.

>>> observed_value("CC(=O)O[C@H]1C(=O)[C@@]2(C)[C@H]([C@H](OC(=O)c3ccccc3)[C@]3(O)C[C@H](OC(=O)[C@H](O)[C@@H](NC(=O)c4ccccc4)c4ccccc4)C(C)=C1C3(C)C)[C@]1(OC(C)=O)CO[C@@H]1C[C@@H]2O")
2200

Below: the item to evaluate.
Data request, read-out concentration at 1 h, for Nc1ccn([C@@H]2O[C@H](CO)[C@@H](O)C2(F)F)c(=O)n1
72600

###

- measurement notes: Pharmacokinetics of venetoclax-zanubrutinib DcNP's versus free drug in mice
- Type: in vivo, BALB/C mice
- cond: female, BALB/C, mouse, plasma, iv, 600 ug, intravenously administered DcNP's
readout kind: AUC
Remember to quote the unit after the number.

>>> observed_value("C=CC(=O)N1CCC([C@@H]2CCNc3c(C(N)=O)c(-c4ccc(Oc5ccccc5)cc4)nn32)CC1")
"11.3 µg·h/mL"

Below: the item to evaluate.
Data request, read-out AUC, for CC1(C)CCC(CN2CCN(c3ccc(C(=O)NS(=O)(=O)c4ccc(NCC5CCOCC5)c([N+](=O)[O-])c4)c(Oc4cnc5[nH]ccc5c4)c3)CC2)=C(c2ccc(Cl)cc2)C1
216 µg·h/mL

###

- measurement notes: Pharmacokinetic study of GT in DcNPs compared to CrEL (Example 2), plasma G, T and dFdU
- Format: in vivo, BALB/c mice
- cond: female, BALB/c, mouse, plasma, intravenous, after GT DcNP dosing, 50/5 mg/kg G/T IV, mice
Listing of recorded concentration at 3 h by entry.
Field format: number, assumed ng/mL, no unit text.

>>> observed_value("CC(=O)O[C@H]1C(=O)[C@@]2(C)[C@H]([C@H](OC(=O)c3ccccc3)[C@]3(O)C[C@H](OC(=O)[C@H](O)[C@@H](NC(=O)c4ccccc4)c4ccccc4)C(C)=C1C3(C)C)[C@]1(OC(C)=O)CO[C@@H]1C[C@@H]2O")
643

Data request, read-out concentration at 3 h, for Nc1ccn([C@@H]2O[C@H](CO)[C@@H](O)C2(F)F)c(=O)n1
41100
